Examples of compounds with documented pIC50 follow.
# assay_system: ROMK (Homo sapiens (Human))
# Sequence (P48048 whole entry): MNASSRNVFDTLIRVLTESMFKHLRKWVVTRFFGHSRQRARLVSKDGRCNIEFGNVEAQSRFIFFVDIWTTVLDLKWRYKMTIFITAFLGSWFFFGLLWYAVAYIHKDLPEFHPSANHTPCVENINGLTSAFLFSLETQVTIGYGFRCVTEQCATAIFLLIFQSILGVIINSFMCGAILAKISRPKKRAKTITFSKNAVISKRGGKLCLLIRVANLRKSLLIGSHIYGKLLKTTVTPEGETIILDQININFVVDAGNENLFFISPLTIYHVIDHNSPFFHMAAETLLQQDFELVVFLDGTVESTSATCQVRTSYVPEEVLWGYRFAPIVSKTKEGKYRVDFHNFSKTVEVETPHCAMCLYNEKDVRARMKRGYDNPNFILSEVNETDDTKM
# method: Thallium Flux Assay
pIC50: −log10 of the molar value.

{"columns": ["compound", "pIC50"],
 "data": [
  ["CC1=C(N2CCOC3(CC4CCC(C3)N4C[C@H](O)c3ccc(-n4cnnn4)nc3)C2=O)COC1=O (some centres unmarked) [Example 47]", 8.02],
  ["CC1=C(N2CCOC3(CCN(C[C@H](O)c4ccc5c(c4C)COC5=O)CC3)CC2)COC1=O (single isomer, unassigned) [Example 41]", 7.49],
  ["Cc1nc(-n2cnnn2)ccc1C(O)CN1CCC2(CC1)CN(C1=CC(=O)OC1)C(=O)O2 (single isomer, unassigned) [Example 17]", 6.33],
  ["CC1=C(N2CCNC3(CCN(CC(O)c4cnc(-n5cnnn5)cn4)CC3)C2=O)COC1=O (single isomer, unassigned) [Example 3A]", 6.94],
  ["O=C1OCC(N2CCOC3(CCN(C[C@@H](O)c4ccc(-n5cnnn5)nc4)CC3)C2)=C1C1CC1 [Example 28B]", 6.20],
  ["CC1=C(N2CCOC3(CCN(CC(O)c4ccc(-n5cnnn5)cc4C)CC3)C2)COC1=O (single isomer, unassigned) [Example 31A]", 6.90],
  ["CC1=C(N2CCOC3(CCN(CCc4ccc5c(c4C)COC5=O)CC3)C2=O)COC1=O [Example 49]", 7.28],
  ["CC1=C(N2CCOC3(CC4CCC(C3)N4C[C@H](O)c3ccc4c(c3C)COC4=O)C2=O)COC1=O (some centres unmarked) [Example 42]", 7.06],
  ["CC1=C(N2CCOC3(CCN(CC(O)c4ccc(-n5cnnn5)cc4F)CC3)C2)COC1=O (single isomer, unassigned) [Example 32B]", 6.91],
  ["O=C1OCC(N2CCOC3(CCN(C[C@H](O)c4ccc(-n5cnnn5)nc4)CC3)C2)=C1Cl [Example 24A]", 7.94],
  ["CC1=C(N2C(=O)C3(CCN(C[C@@H](O)c4ccc(-n5cnnn5)nc4)CC3)OCC2C)COC1=O (single isomer, unassigned) [Example 10C]", 6.50],
  ["CC1=C(N2CCNC3(CCN(C[C@@H](O)c4ccc(-n5cnnn5)nc4)CC3)C2=O)COC1=O [Example 4B]", 7.20],
  ["CC1=C(N2CCOC3(CCN(CC(O)c4ccc(-n5cnnn5)cc4F)CC3)C2)COC1=O (single isomer, unassigned) [Example 32A]", 7.43],
  ["CC1=C(N2CCOC3(CCN(CCc4ccc(-n5cnnn5)nn4)CC3)C2=O)COC1=O [Example 51]", 7.57]
]}
